Test system: IGROV1 ovarian
Assay: NCI-60 one-dose screen, 48 h (100 = growth as untreated, 0 = no growth, -100 = all killed)
Conditions: 10 µM
Compounds without any hit were thinned out: in the full panel of roughly 83,000, 20% have a hit.
Is growth at least 70%? Then condition met. If not, condition not met.

// below: answered compounds
Given the entry CC(C)NC(=O)c1cc(-c2ccc(NC(=O)Nc3ccc(N4CCN(C)CC4)c(C(F)(F)F)c3)cc2)nc2cccnc12 , answer whether its growth meets or surpasses 70%.
condition not met

Given the entry N#Cc1ccc(-c2nn(-c3ccc(C(=O)O)cc3)cc2CNc2cc(Cl)cc(Cl)c2)cc1 , answer whether its growth meets or surpasses 70%.
condition not met

New cases:
Given the entry O=C(Cn1nc(-c2ccccc2)ccc1=O)NNC(=S)NC1CCCCC1 , answer whether its growth meets or surpasses 70%.
condition met

Given the entry CC(=O)C1=C(C)NC(SCC(=O)Nc2ccc(S(=O)(=O)Nc3cc(C)on3)cc2)=NC1c1ccccc1 (stereo not given) , answer whether its growth meets or surpasses 70%.
condition met
